Target: T1, human IL-2 receptor β subunit (hIL-2Rβ) (human, UniProt P14784 27-240, biotin on the C-terminal biotin acceptor peptide)
T1 construct: Biotinylated and immobilised on streptavidin; also called HsIL-2Rβ; human IL-2Rβ
T1 sequence: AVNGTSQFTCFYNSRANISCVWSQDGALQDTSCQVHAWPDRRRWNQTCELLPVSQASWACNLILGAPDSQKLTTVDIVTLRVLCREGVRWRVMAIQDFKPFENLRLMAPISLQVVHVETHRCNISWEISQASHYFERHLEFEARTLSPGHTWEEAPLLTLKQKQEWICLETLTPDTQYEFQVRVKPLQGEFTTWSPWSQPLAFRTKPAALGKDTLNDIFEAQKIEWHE
Test: SPR, equilibrium titration; biotinylated IL-2Rβ on streptavidin chip

binder | Kd (nM)
G1_neo2_43 (designed binder, Single-disulfide stapled variation; In yeast display between Aga2 and a myc tag; also called G1_ne02_43) STKKIQLQLEHALLDVQMALNRSPEPNESLNRMITWLQSCISTGKCDLDNAQEMAKEAEKIRKEMEKRGIDVRDLISNIIVILLELS | 2860
G1_neo2_40_1F (designed binder, also called G1_ne02_40_1F) STKKTQLLAEHALLDALMMLNLLPEPNEKLNRIITTMQSWIFTGKIDGDGAQELAKEVEELEQEHEKRGIDVEDYASNLKVILLELA | 2.6
G1_neo2_41 (designed binder, Single-disulfide stapled variation; In yeast display between Aga2 and a myc tag; also called G1_ne02_41) STKKLQLQAEHALLDAQMMLNRSPEPNEKLNRIITTMQSCISTGKCDLDGAKELAKEVEELRQEAEKRGIDVRDLASNLKVILLELA | 721
G1_neo2_40 (designed binder, also called G1_ne02_40) STKKLQLQAEHALLDAQMMLNRSPEPNEKLNRIITTMQSWISTGKIDLDGAKELAKEVEELRQEAEKRGIDVRDLASNLKVILLELA | 1460
mouse interleukin-2 (mIL-2) (ligand, UniProt P04351 21-169, looked up, range 1-149; Baculovirus expression for SPR; also called MmIL-2; mouse IL-2) APTSSSTSSSTAEAQQQQQQQQQQQQHLEQLLMDLQELLSRMENYRNLKLPRMLTFKFYLPKQATELKDLQCLEDELGPLRHVLDLTQSKSFQLEDAENFISNIRVTVVKLKGSDNTFECQFDDESATVVDFLRRWIAFCQSIISTSPQ | 4950
G2_neo2_40_1F_dsn36 (designed binder, E. coli, N-terminal 6xHis tag and thrombin site) PKKKIQLLAEHALLDALMILNIVKTNSQNAEEKLEDYASNVEVILEEIARLMESGDQKDEAEKAKRMKEWMKRIKTTASEDEQEEMANRIITLLQSWIFS | 27.6
